Target: BChE (horse serum source) (Equus caballus)
Sequence (P81908 whole entry): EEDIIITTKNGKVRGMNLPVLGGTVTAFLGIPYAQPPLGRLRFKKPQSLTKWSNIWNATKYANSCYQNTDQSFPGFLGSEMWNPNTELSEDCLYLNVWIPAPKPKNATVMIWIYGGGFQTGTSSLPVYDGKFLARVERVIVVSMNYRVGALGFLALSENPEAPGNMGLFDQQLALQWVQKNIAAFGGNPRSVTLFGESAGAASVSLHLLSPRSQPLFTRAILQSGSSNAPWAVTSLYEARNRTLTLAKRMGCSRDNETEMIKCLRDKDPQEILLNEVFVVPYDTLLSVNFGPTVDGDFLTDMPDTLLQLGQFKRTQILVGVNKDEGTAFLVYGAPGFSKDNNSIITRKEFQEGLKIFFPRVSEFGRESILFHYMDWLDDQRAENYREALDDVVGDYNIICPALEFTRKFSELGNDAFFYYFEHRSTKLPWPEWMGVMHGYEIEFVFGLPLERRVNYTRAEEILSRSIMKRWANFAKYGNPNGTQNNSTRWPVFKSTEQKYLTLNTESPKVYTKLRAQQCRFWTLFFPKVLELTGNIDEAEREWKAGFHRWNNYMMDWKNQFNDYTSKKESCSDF
Assay: biochemical
result_type: IC50 (µM)
Give the number; µM is assumed, so skip it.

Exam item: Request the reported IC50 associated with O=C(O)C1=C[C@@H](O)[C@@H](O)[C@H](O)C1 [Compound 6, shikimic acid]
Marked response: 337

* * *

Target: BChE (horse serum source) (Equus caballus)
Assay: biochemical
Details: read-out: IC50 ± SEM (Butyrylcholinesterase); Table 3, repeats Table 1; unit inferred
pIC50: −log10 of the molar value.
result_type: pIC50

Exam item: Fill in the blank: the reported pIC50 of CC1OC(Oc2c(-c3cc(O)c(O)c(O)c3)oc3cc(O)cc(O)c3c2=O)C(O)C(O)C1O (stereo not shown) [Compound 5, myricetin-3-O-rhamnoside] is ____.
Marked response: < 3.67

* * *

Biological target: UniProtKB O42275
Sequence (O42275 24-633): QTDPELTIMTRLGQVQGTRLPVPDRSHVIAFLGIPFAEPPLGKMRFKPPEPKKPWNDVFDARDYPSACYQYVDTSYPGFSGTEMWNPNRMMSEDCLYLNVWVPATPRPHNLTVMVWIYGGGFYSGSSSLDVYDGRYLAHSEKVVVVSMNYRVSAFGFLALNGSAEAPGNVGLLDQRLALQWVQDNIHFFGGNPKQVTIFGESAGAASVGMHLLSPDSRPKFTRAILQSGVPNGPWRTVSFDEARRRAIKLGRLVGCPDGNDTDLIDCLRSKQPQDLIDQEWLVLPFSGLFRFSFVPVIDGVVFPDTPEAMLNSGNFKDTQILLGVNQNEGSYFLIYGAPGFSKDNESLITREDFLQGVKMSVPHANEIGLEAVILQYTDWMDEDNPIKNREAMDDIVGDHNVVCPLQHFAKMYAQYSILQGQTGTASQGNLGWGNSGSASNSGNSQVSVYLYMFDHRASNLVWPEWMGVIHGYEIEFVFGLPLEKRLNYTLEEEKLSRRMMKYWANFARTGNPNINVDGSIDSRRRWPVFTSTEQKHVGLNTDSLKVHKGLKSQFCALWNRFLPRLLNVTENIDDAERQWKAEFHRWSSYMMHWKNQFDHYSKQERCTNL
Test: biochemical
Conditions: evaluated up to 100 µg/mL; means ± SEM of three measurements; read-out: AChE IC50 (converted)
Assign IC50 to each entry below.
Quick note: give the figure in µM, leave out the unit.

Exam item: Item under review: CC1(C)CC[C@]2(C(=O)O)CC[C@]3(C)C(=CC[C@@H]4[C@@]5(C)C[C@@H](O)[C@H](O)[C@@](C)(CO)[C@@H]5[C@H](O)C[C@]43C)[C@@H]2C1 [Compound 8, terminolic acid] . Reported IC50?
Marked response: 130

Exam item: Which IC50 reading was recorded for the compound CC1(C)CC[C@]2(C(=O)O)CC[C@]3(C)C(=CC[C@@H]4[C@@]5(C)C[C@@H](O)[C@H](O)[C@@](C)(CO)[C@@H]5CC[C@]43C)[C@@H]2[C@@H]1O [Compound 7, arjungenin] ?
Marked response: 106

Exam item: Could you tell me which IC50 is on file for COc1cc2c(=O)oc3c(OC)c(O[C@@H]4OC[C@@H](O)[C@H](O)[C@H]4O)cc4c(=O)oc(c1OC)c2c34 [Compound 2] ?
Marked response: 129

* * *

Exercise: state measured pIC50 for each of the compounds provided.
Biological target: BChE (horse serum source) (Equus caballus)
Assay: biochemical
Settings: Table 3, repeats Table 1; unit inferred; read-out: IC50 ± SEM (Butyrylcholinesterase)
pIC50: −log10 of the molar value.

Exam item: Tell me reported pIC50 for CC1(C)CC[C@]2(C(=O)O)CC[C@]3(C)C(=CC[C@@H]4[C@@]5(C)C[C@@H](O)[C@H](O)[C@@](C)(CO)[C@@H]5[C@H](O)C[C@]43C)[C@@H]2C1 [Compound 8, terminolic acid] , tested with BChE (horse serum source) (Equus caballus).
Marked response: < 3.70

Exam item: Param readout= pIC50; system= BChE (horse serum source) (Equus caballus); entry= CC1(C)CC[C@]2(C(=O)O)CC[C@]3(C)C(=CC[C@@H]4[C@@]5(C)C[C@@H](O)[C@H](O)[C@@](C)(CO)[C@@H]5CC[C@]43C)[C@@H]2[C@@H]1O [Compound 7, arjungenin] ; returns value.
Marked response: < 3.70

Exam item: Report pIC50 for COc1cc2c(=O)oc3c(OC)c(O[C@@H]4OC[C@@H](O)[C@H](O)[C@H]4O)cc4c(=O)oc(c1OC)c2c34 [Compound 2] tested on BChE (horse serum source) (Equus caballus).
Marked response: < 3.68

Exam item: Observed pIC50 on BChE (horse serum source) (Equus caballus) for CC1(C)CCC2(C(=O)OC3OC(CO)C(O)C(O)C3O)CCC3(C)C(=CCC4C5(C)CC(O)C(O)C(C)(C)C5CCC43C)C2C1O (stereo not drawn) [Compound 9, 24-deoxysericoside] , please.
Marked response: < 3.81

Exam item: Report pIC50 for CC1(C)CC[C@]2(C(=O)O[C@@H]3O[C@H](CO)[C@@H](O)[C@H](O)[C@H]3O)CC[C@]3(C)C(=CC[C@@H]4[C@@]5(C)C[C@@H](O)[C@H](O)[C@@](C)(CO)[C@@H]5[C@H](O)C[C@]43C)[C@@H]2C1 [Compound 11, chebuloside II] tested on BChE (horse serum source) (Equus caballus).
Marked response: < 3.82

Exam item: Request - read-out pIC50 | tested on BChE (horse serum source) (Equus caballus) | compound CC1(C)CC[C@]2(C(=O)O[C@@H]3O[C@H](CO)[C@@H](O)[C@H](O)[C@H]3O)CC[C@]3(C)C(=CC[C@@H]4[C@@]5(C)C[C@@H](O)[C@H](O)[C@@](C)(CO)[C@@H]5CC[C@]43C)[C@@H]2[C@@H]1O [Compound 10, arjunglucoside I]
Marked response: < 3.82
